All figures here come from ChEMBL document CHEMBL1139492.

biological target: Benzodiazepine receptors; peripheral & central (Rattus norvegicus) (UniProt O09028+P15431+P18506+P18508+P19969+P20236+P23574+P23576+P28471+P28473+P30191+P62813+P63079+P63138+Q91ZM7+Q9ES14+P16257); assay: Ratio of inhibition for peripheral benzodiazepine receptor of rat ovary and central benzodiazepine GABA-A receptor; type: tissue-based; parameters: scale not given here; conditions: Female gonad
Classification field: enter Condition met for Selectivity index values not below 2, Condition not met for values below it.

These solved cases illustrate the format of a correct answer.
O=C(Cc1c(-c2ccccc2)nc2c(Cl)cc(Cl)cn12)Nc1ccncc1 | Condition not met
O=C(Cc1c(-c2ccc(Cl)cc2)nc2c(Cl)cc(Cl)cn12)N1CCN(Cc2ccccc2)CC1 | Condition not met

**Q:** Check this compound for Selectivity index at or above 2: O=C(Cc1c(-c2ccc(Cl)cc2)nc2c(Cl)cc(Cl)cn12)N1CCc2ccccc2C1
**A:** Condition met

**Q:** Check this compound for Selectivity index at or above 2: CCCCN(C)C(=O)Cc1c(-c2ccccc2)nc2c(Cl)cc(Cl)cn12
**A:** Condition met

**Q:** Check this compound for Selectivity index at or above 2: CCCN(CCC)C(=O)C(C)c1c(-c2ccc(Cl)cc2)nc2c(Cl)cc(Cl)cn12 (stereo not given)
**A:** Condition not met

**Q:** Check this compound for Selectivity index at or above 2: O=C(Cc1c(-c2ccccc2)nc2c(Cl)cc(Cl)cn12)N1CCc2ccccc2C1
**A:** Condition not met

**Q:** Check this compound for Selectivity index at or above 2: CN(CCc1ccccn1)C(=O)Cc1c(-c2ccccc2)nc2c(Cl)cc(Cl)cn12
**A:** Condition not met

**Q:** Check this compound for Selectivity index at or above 2: O=C(Cc1c(-c2ccc(Cl)cc2)nc2c(Cl)cc(Cl)cn12)N1CCCC1
**A:** Condition not met

* * *

biological target: Translocator protein (Rattus norvegicus); experiment: Displacement of [3H]-PK11195 from peripheral benzodiazepine receptor of rat ovary; format: tissue-based, Female gonad
Sequence (P16257 whole entry, looked up): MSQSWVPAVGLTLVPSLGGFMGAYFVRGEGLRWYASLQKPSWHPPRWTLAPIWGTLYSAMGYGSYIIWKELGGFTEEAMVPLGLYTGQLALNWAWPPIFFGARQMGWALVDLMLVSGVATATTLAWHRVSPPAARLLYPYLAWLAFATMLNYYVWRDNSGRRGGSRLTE
Record form. Attribute: pKi. Fill in for each entry.
Answers are plain numbers, as −log10 of the molar value.

The examples below pair each entry with its known result.
CCCCN(Cc1ccccc1)C(=O)Cc1c(-c2ccccc2)nc2c(Cl)cc(Cl)cn12 | 7.19
CCCCN(CCCC)C(=O)Cc1c(-c2ccc(Cl)cc2)nc2c(Cl)cccn12 | 7.76
O=C(Cc1c(-c2ccccc2)nc2c(Cl)cc(Cl)cn12)Nc1ccncc1 | 5.53
CCOC(=O)C1CCCN(C(=O)Cc2c(-c3ccc(Cl)cc3)nc3ccc(Cl)cn23)C1 (stereo not given) | 6.68
CC(C(=O)N(C)Cc1ccccc1)c1c(-c2ccc(Cl)cc2)nc2c(Cl)cc(Cl)cn12 (stereo not given) | 5.08
O=C(Cc1c(-c2ccc(Cl)cc2)nc2c(Cl)cc(Cl)cn12)N1CCN(Cc2ccccc2)CC1 | 3.29
CN(CCc1ccccn1)C(=O)Cc1c(-c2ccc(Cl)cc2)nc2c(Cl)cc(Cl)cn12 | 5.43
CCCCN(C(=O)Cc1c(-c2ccc(Cl)cc2)nc2ccc(Cl)cn12)c1ccccc1 | 8.05

Hi, could you look up pKi for each item in my list?
1. CCCCCCN(CCCCCC)C(=O)Cc1c(-c2ccc(Cl)cc2)nc2c(Cl)cc(Cl)cn12
2. CN(CCc1ccccn1)C(=O)Cc1c(-c2ccccc2)nc2c(Cl)cc(Cl)cn12
3. O=C(Cc1c(-c2ccccc2)nc2c(Cl)cc(Cl)cn12)N1CCCCC1

**A:**
1: 5.72; 2: 5.44; 3: 5.99

Hi, could you look up pKi for each item in my list?
1. CCCCNC(=O)Cc1c(-c2ccc(Cl)cc2)nc2c(Cl)cc(Cl)cn12
2. CCCCCCN(CCCCCC)C(=O)Cc1c(-c2ccc(Cl)cc2)nc2ccc(Cl)cn12
3. O=C(Cc1c(-c2ccccc2)nc2c(Cl)cc(Cl)cn12)N1CCc2ccccc2C1
4. CC(C(=O)N(C)C1CCCCC1)c1c(-c2ccc(Cl)cc2)nc2c(Cl)cc(Cl)cn12 (stereo not given)
5. O=C(Cc1c(-c2ccccc2)nc2c(Cl)cc(Cl)cn12)N1CCCC1
6. CC(C)(C)N(Cc1ccccc1)C(=O)Cc1c(-c2ccc(Cl)cc2)nc2c(Cl)cc(Cl)cn12
7. CCCCN(CCCC)C(=O)Cc1c(-c2ccc(Cl)cc2)nc2ccc(Cl)cn12
8. CN(C(=O)Cc1c(-c2ccc(Cl)cc2)nc2c(Cl)cc(Cl)cn12)c1ccccc1

**A:**
1. 6.77
2. 7.45
3. 6.78
4. 5.66
5. 5.18
6. 4.89
7. 8.32
8. 8.90

**Q:** For the molecule shown here, CCOC(=O)C1CCCN(C(=O)Cc2c(-c3ccc(Cl)cc3)nc3c(Cl)cc(Cl)cn23)C1 (stereo not given) , give the reported pKi.
**A:** 5.76

* * *

target: GABA-A receptor; anion channel; experiment: Displacement of [3H]flunitrazepam from central benzodiazepine GABA-A receptor of rat cerebral cortex
Record form. Attribute: pKi. Fill in for each entry.
Numbers only, as −log10 of the molar value.

Hi, could you look up pKi for each item in my list?
1. O=C(Cc1c(-c2ccc(Cl)cc2)nc2c(Cl)cc(Cl)cn12)N1CCN(Cc2ccccc2)CC1
2. O=C(Cc1c(-c2ccccc2)nc2c(Cl)cc(Cl)cn12)Nc1ccncc1
3. CCOC(=O)C1CCCN(C(=O)Cc2c(-c3ccc(Cl)cc3)nc3c(Cl)cc(Cl)cn23)C1 (stereo not given)
4. CCCCN(Cc1ccccc1)C(=O)Cc1c(-c2ccccc2)nc2c(Cl)cc(Cl)cn12
5. CCCCN(C(=O)Cc1c(-c2ccc(Cl)cc2)nc2ccc(Cl)cn12)c1ccccc1
6. CCCCN(C(=O)Cc1c(-c2ccc(Cl)cc2)nc2c(Cl)cc(Cl)cn12)c1ccccc1
7. CCCCN(C(=O)Cc1c(-c2ccccc2)nc2c(Cl)cc(Cl)cn12)c1ccccc1
8. CN(CCc1ccccn1)C(=O)Cc1c(-c2ccccc2)nc2c(Cl)cc(Cl)cn12

**A:**
5.16
5.11
5.16
5.15
6.30
5.16
5.16
5.11

Hi, could you look up pKi for each item in my list?
1. CN(CCc1ccccn1)C(=O)Cc1c(-c2ccc(Cl)cc2)nc2c(Cl)cc(Cl)cn12
2. O=C(Cc1c(-c2ccccc2)nc2c(Cl)cc(Cl)cn12)N1CCCCC1

**A:**
5.11
5.12

Hi, could you look up pKi for each item in my list?
1. CC(C)(C)N(Cc1ccccc1)C(=O)Cc1c(-c2ccc(Cl)cc2)nc2c(Cl)cc(Cl)cn12
2. CN(Cc1ccccc1)C(=O)Cc1c(-c2ccc(Cl)cc2)nc2c(Cl)cc(Cl)cn12

**A:**
5.12
5.16

Hi, could you look up pKi for each item in my list?
1. CN(C(=O)Cc1c(-c2ccc(Cl)cc2)nc2c(Cl)cc(Cl)cn12)c1ccccc1
2. CCCCN(CCCC)C(=O)Cc1c(-c2ccc(Cl)cc2)nc2c(Cl)cccn12
3. O=C(Cc1c(-c2ccccc2)nc2c(Cl)cc(Cl)cn12)NC1CCCCC1
4. CCCCCCN(CCCCCC)C(=O)Cc1c(-c2ccc(Cl)cc2)nc2c(Cl)cc(Cl)cn12

**A:**
5.16
5.16
5.15
5.11

Hi, could you look up pKi for each item in my list?
1. CCCCN(CCCC)C(=O)Cc1c(-c2ccc(Cl)cc2)nc2ccc(Cl)cn12
2. O=C(Cc1c(-c2ccc(Cl)cc2)nc2c(Cl)cc(Cl)cn12)NC1CCCCC1
3. CCCN(CCC)C(=O)C(C)c1c(-c2ccc(Cl)cc2)nc2c(Cl)cc(Cl)cn12 (stereo not given)

**A:**
7.16
5.12
5.15

Hi, could you look up pKi for each item in my list?
1. O=C(Cc1c(-c2ccc(Cl)cc2)nc2c(Cl)cc(Cl)cn12)N1CCc2ccccc2C1
2. O=C(Cc1c(-c2ccccc2)nc2c(Cl)cc(Cl)cn12)N1CCc2ccccc2C1
3. CCCCCCN(CCCCCC)C(=O)Cc1c(-c2ccc(Cl)cc2)nc2ccc(Cl)cn12

**A:**
1: 5.16; 2: 5.16; 3: 5.59

Hi, could you look up pKi for each item in my list?
1. CCCCN(C)C(=O)Cc1c(-c2ccc(Cl)cc2)nc2c(Cl)cc(Cl)cn12
2. O=C(Cc1c(-c2ccc(Cl)cc2)nc2c(Cl)cc(Cl)cn12)NCc1ccccc1

**A:**
[5.16, 5.15]

Hi, could you look up pKi for each item in my list?
1. O=C(Cc1c(-c2ccc(Cl)cc2)nc2c(Cl)cc(Cl)cn12)N1CCCCC1
2. CCCCNC(=O)Cc1c(-c2ccc(Cl)cc2)nc2c(Cl)cc(Cl)cn12

**A:**
5.12
5.16
